# target system: mutant MGL (Homo sapiens, UniProt Q99685, L169S/L176S)
# Sequence (Q99685 1-303 L169S/L176S): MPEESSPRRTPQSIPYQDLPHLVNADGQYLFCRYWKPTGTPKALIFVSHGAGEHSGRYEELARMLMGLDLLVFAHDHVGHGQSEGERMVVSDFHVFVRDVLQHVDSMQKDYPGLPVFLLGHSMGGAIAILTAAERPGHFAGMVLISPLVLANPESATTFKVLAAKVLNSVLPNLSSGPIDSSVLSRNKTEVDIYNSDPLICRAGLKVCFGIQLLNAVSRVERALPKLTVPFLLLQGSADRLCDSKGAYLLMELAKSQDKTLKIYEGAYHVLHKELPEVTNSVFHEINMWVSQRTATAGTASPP
# protocol notes: MGL ThermoFluor assay - mutant
# Assay type: binding
# condition details: ThermoFluor concentration-response, read-out: MGL mutant ThermoFluor Kd

structure smiles | Kd
Cc1c(C(=O)N2CC(N3CCN(C(=O)c4cscn4)CC3)C2)sc2ccc(-c3ccccc3)cc12 | 7 nM
CC(C)(C)c1cc(C(=O)N2CC(N3CCN(C(=O)c4nccs4)CC3)C2)cc(C(C)(C)C)c1 | 257 nM
O=C(c1ccc(-c2cc(Cl)cc(Cl)c2)cc1)N1CC(N2CCN(C(=O)c3nccs3)CC2)C1 | 1.11 nM
CC(=O)Oc1ccc(C(=O)N2CC(N3CCN(C(=O)c4nccs4)CC3)C2)cc1 | 2500 nM
